// data source = ChEMBL document CHEMBL2218924

# study_target: Protein kinase C gamma type (Homo sapiens) (UniProt P05129)
# condition_description: at 1 µM
// values below are reported residual activity
Answer format: numeric, % implied, no suffix.

Example molecules with recorded residual activity:
>  <molecule>
COc1cc(OC)c(/C=C2\C(=O)Nc3ccccc32)c(OC)c1

>  <quantity>
residual activity

>  <endpoint_result>
98

$$$$
>  <molecule>
N/C(=N\[N+](=O)[O-])N/N=C\c1ccc(-c2cccc([N+](=O)[O-])c2)o1

>  <quantity>
residual activity

>  <endpoint_result>
91

$$$$
>  <molecule>
CC(C)(C)c1cc(C=C(C#N)C#N)cc(Br)c1O

>  <quantity>
residual activity

>  <endpoint_result>
98

$$$$
>  <molecule>
CCc1nc(-c2ccc(OC)cc2)[nH]c1-c1ccncc1

>  <quantity>
residual activity

>  <endpoint_result>
108

$$$$
>  <molecule>
C[S+]([O-])c1ccc(-c2nc(-c3ccc(F)cc3)c(-c3ccncc3)[nH]2)cc1 (stereo not drawn)

>  <quantity>
residual activity

>  <endpoint_result>
104

$$$$

For reference, reported residual activity for `O=C1Nc2ccc3ncsc3c2/C1=C/c1c[nH]cn1` stands at 69

Lab note: measured residual activity of `O=[N+]([O-])/C=C/c1ccc2c(c1)OCO2` was 103

`COc1cc2ncnc(Nc3ccc(OCc4ccccc4)cc3)c2cc1OC` has a reported residual activity of 105
